Value source: patent US4816472A

# Tested on: ethanol induced ulcers in the rat
# assay.method.text: Ethanol induced ulcers in the rat
# Assay type: in vivo
# condition.parameters: 100 mg/kg
assay.metric: Percent inhibition of ethanol induced ulcers in the rat (%)

- compound: "CCCCCCC1CCC(O)C1CCCCCCC(=O)O (stereo not shown) [drawing 13]"
  measurement.units: "%"
  measured: 37
- compound: "CCCCCCC1CCC(N(C)C)C1CCCCCCC(=O)O (stereo not shown) [drawing 10]"
  measurement.units: "%"
  measured: 91
- compound: "CCCCCCC1CCC(NC(C)=O)C1CCCCCCC(=O)O (stereo not shown) [drawing 12]"
  measurement.units: "%"
  measured: 78
- compound: "CCCCCCC1CCC(NC)C1CCCCCCC(=O)O (stereo not shown) [drawing 9]"
  measurement.units: "%"
  measured: 91

----------
# System: ethanol induced ulcers in the rat
# assay.method.text: Ethanol induced ulcers in the rat
# Assay type: in vivo
# condition.parameters: 50 mg/kg
Classify by measured Percent inhibition of ethanol induced ulcers in the rat: Condition met if it is equal to or exceeds 60%, Condition not met if it is smaller.

- molecule: "CCCCCCC1CCC(N(C)C)C1CCCCCCC(=O)O (centres unmarked) [drawing 10]"
  class: "Condition met"
- molecule: "CCCCCCC1CCC(O)C1CCCCCCC(=O)O (centres unmarked) [drawing 13]"
  class: "Condition not met"
- molecule: "CCCCCCC1CCC(NC)C1CCCCCCC(=O)O (centres unmarked) [drawing 9]"
  class: "Condition met"
- molecule: "CCCCCCC1CCC(N)C1CCCCCCC(=O)O (centres unmarked) [drawing 8]"
  class: "Condition met"
- molecule: "CCCCCCC1CCC(NC(C)C)C1CCCCCCC(=O)O (centres unmarked) [drawing 11]"
  class: "Condition met"

----------
# Test system: ethanol induced ulcers in the rat
# assay.method.text: Ethanol induced ulcers in the rat
# Format: in vivo
# condition.parameters: 10 mg/kg
# Experimental: The anitulcer activity of these derivatives was evaluated on ulcers induced by the administration of ethanol, hydrochloric acid and sodium hydroxide in the rat, also on gastric ulcers induced by aspirin in the rat, and on their influence on gastric secretions in the rat. (1) Ethanol induced ulcers in the rat: The method used is that described by A. Robert et al, in Gastroenterology 77,433 (1979), the disclosure of which is incorporated herein by reference.
assay.metric: Percent inhibition of ethanol induced ulcers in the rat (%)

- compound: "CCCCCCC1CCC(NC(C)C)C1CCCCCCC(=O)O (centres unmarked) [drawing 11]"
  measured: 9
- compound: "CCCCCCC1CCC(N)C1CCCCCCC(=O)O (centres unmarked) [drawing 8]"
  measured: 70
- compound: "CCCCCCC1CCC(NC(C)=O)C1CCCCCCC(=O)O (centres unmarked) [drawing 12]"
  measured: 25
- compound: "CCCCCCC1CCC(NC)C1CCCCCCC(=O)O (centres unmarked) [drawing 9]"
  measured: 67
- compound: "CCCCCCC1CCC(N(C)C)C1CCCCCCC(=O)O (centres unmarked) [drawing 10]"
  measured: 62

----------
# System: HCl induced ulcers in the rat
# assay.method.text: Hydrochloric acid induced ulcers in the rat
# Format: in vivo
# condition.parameters: 100 mg/kg
Classify by measured Percent inhibition of HCl induced ulcers in the rat: True if it is equal to or exceeds 60%, False if it is smaller.

- compound: "CCCCCCC1CCC(N)C1CCCCCCC(=O)O (centres unmarked) [drawing 14]"
  class: "True"
- compound: "CCCCCCC1CCC(NC(C)C)C1CCCCCCC(=O)O (centres unmarked) [drawing 17]"
  class: "False"
- compound: "CCCCCCC1CCC(N(C)C)C1CCCCCCC(=O)O (centres unmarked) [drawing 16]"
  class: "True"
- compound: "CCCCCCC1CCC(O)C1CCCCCCC(=O)O (centres unmarked) [drawing 19]"
  class: "False"
- compound: "CCCCCCC1CCC(NC)C1CCCCCCC(=O)O (centres unmarked) [drawing 15]"
  class: "True"

----------
# System: gastric secretion in the rat
# assay.method.text: Gastric secretion in the rat
# Type: in vivo, Sprague-Dawley rats
# condition.parameters: 25 mg/kg, 2 h after treatment
Classify by measured Percent inhibition of gastric secretion in the rat: fulfilled if it is equal to or exceeds 40%, not fulfilled if it is smaller.

- molecule: "CCCCCCC1CCC(NC(C)C)C1CCCCCCC(=O)O (stereo not drawn) [drawing 35]"
  class: "not fulfilled"
- molecule: "CCCCCCC1CCC(N)C1CCCCCCC(=O)O (stereo not drawn) [drawing 32]"
  class: "fulfilled"
- molecule: "CCCCCCC1CCC(NC)C1CCCCCCC(=O)O (stereo not drawn) [drawing 33]"
  class: "not fulfilled"
- molecule: "CCCCCCC1CCC(O)C1CCCCCCC(=O)O (stereo not drawn) [drawing 37]"
  class: "not fulfilled"
- molecule: "CCCCCCC1CCC(N(C)C)C1CCCCCCC(=O)O (stereo not drawn) [drawing 34]"
  class: "fulfilled"
- molecule: "CCCCCCC1CCC(NC(C)=O)C1CCCCCCC(=O)O (stereo not drawn) [drawing 36]"
  class: "fulfilled"
